Biological target: T1, LIN7C, Q9NUP9
T1 sequence (Q9NUP9 88-185, limits assumed, looked up): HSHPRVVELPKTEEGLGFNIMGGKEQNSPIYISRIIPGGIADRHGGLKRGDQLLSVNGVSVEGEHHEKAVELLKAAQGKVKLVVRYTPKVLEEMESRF
Test: holdup assay
Design: key: below the threshold = too weak to quantify, mostly under pKd 3.1 to 4
Settings: plain residues with an end cap or a label only (N-terminal biotin on a linker: ttds)
Readout type: pKd

Below are worked cases with known answers.
- EMDRRPATVV [PLCB4, Q15147]: below the threshold
- DKDPHSETAL [TMIGD1, Q6UXZ0]: below the threshold
- PRVKPQRSKV [PPP1R13L, Q8WUF5]: below the threshold
- RPLPRKVSQL [DOCK4, Q8N1I0]: below the threshold
- FHPLGADSQV [SLC2A1, P11166]: below the threshold

Exercise: Give the reported value of pKd for this record: NDPAWDETNL [ARHGEF7, Q14155;Q14155-1]
Key: below the threshold
